Exercise: for every item that follows, state its recorded inhibition.
- experimentNotes: Leishmania major promastigote growth inhibition, primary screen (AID 1063);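 note: promastigotes grown with compound for 44 hours at 28 °C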
- experimentalConditions: Leishmania major promastigotes, resazurin fluorescence viability; at 10 µM; stronger effect = higher value
The campaign covered roughly 200,000 compounds. About 18,000 (9%) were called active. The entries come from a sample that favours actives as a whole.
Report the value in % with no unit label.

Query string: Answer with reported inhibition of "CCc1c(C)nc2c(OC)cccc2c1Cl"
Result string: -3.45

Query string: Answer with reported inhibition of "Cc1cc(C)c2c(n1)nn1c(N3CCOCC3)cc(C)nc21"
Result string: 4.53

Query string: Answer with reported inhibition of "COCCNC(=O)/C(C#N)=C/c1nc(N(C)C)n(-c2ccc(F)cc2)c1Cl"
Result string: 10.3

Query string: Answer with reported inhibition of "Cc1ccc(CN2CCN(/N=C/c3cccnc3)CC2)c(C)c1"
Result string: 13.4

Query string: Answer with reported inhibition of "Cc1cc(C)c2nc(SCCC#N)nc(C)c2c1"
Result string: 5.11

Query string: Answer with reported inhibition of "CC(=O)Nc1ccc(OCCC[n+]2cccc(C(=O)[O-])c2)cc1"
Result string: 0.17

Value source: PubChem BioAssay AID1063
